This collection of values is drawn from PubChem BioAssay AID1745844.

- System: rodent lifetime carcinogenesis bioassay, tumor incidence TD50
- EXPERIMENT NOTES: carcinogenic potency in animals, long-term in vivo studies, CPDB compilation (AID 1745844)
- CONDITION DESCRIPTION: rat; strain Fischer 344; males; in drinking water; site: Zymbal's gland; lesion: adenoma + adenoma, bilateral + carcinoma + carcinoma, bilateral; dosed 58 weeks; study length 60 weeks
REPORTED PROPERTY: TD50

Q. Hi! What's the reported TD50 for `Cc1cc(-c2ccc(N)c(C)c2)ccc1N` on rodent lifetime carcinogenesis bioassay, tumor incidence TD50?
A. 1.12 mg/kg/day

###

- Tested on: rodent lifetime carcinogenesis bioassay, tumor incidence TD50
- EXPERIMENT NOTES: carcinogenic potency in animals, long-term in vivo studies, CPDB compilation (AID 1745844)
- CONDITION DESCRIPTION: mouse; strain B6C3F1; males; by gavage; site: Harderian gland; lesion: adenoma; dosed 104 weeks; study length 104 weeks
REPORTED PROPERTY: TD50 (mg/kg/day)
Just the number please, in mg/kg/day, no unit attached.

Q. Which TD50 value belongs to `Cc1cn([C@H]2C[C@H](N=[N+]=[N-])[C@@H](CO)O2)c(=O)[nH]c1=O` ?
A. 425

###

- System: rodent lifetime carcinogenesis bioassay, tumor incidence TD50
- EXPERIMENT NOTES: carcinogenic potency in animals, long-term in vivo studies, CPDB compilation (AID 1745844)
- CONDITION DESCRIPTION: mouse; strain Swiss; males; by gavage; site: preputial gland; lesion: squamous-cell carcinoma; dosed 52 weeks; study length 128 weeks
REPORTED PROPERTY: TD50 (mg/kg/day)
Just the number please, in mg/kg/day, no unit attached.

Q. Which TD50 value belongs to `CCCCC/C=N/N(C)C=O` ?
A. 8.03

###

- Test system: rodent lifetime carcinogenesis bioassay, tumor incidence TD50
- EXPERIMENT NOTES: carcinogenic potency in animals, long-term in vivo studies, CPDB compilation (AID 1745844)
- CONDITION DESCRIPTION: rat; strain Fischer 344; males; in feed; site: colon; lesion: polypoid adenoma; dosed 103 weeks; study length 104 weeks
REPORTED PROPERTY: TD50 (mg/kg/day)
Just the number please, in mg/kg/day, no unit attached.

Q. Which TD50 value belongs to `Nc1c(Br)cc(Br)c2c1C(=O)c1ccccc1C2=O` ?
A. 1660

###

- Tested on: rodent lifetime carcinogenesis bioassay, tumor incidence TD50
- EXPERIMENT NOTES: carcinogenic potency in animals, long-term in vivo studies, CPDB compilation (AID 1745844)
- CONDITION DESCRIPTION: rat; strain NZBW (hooded black and white strain); females; in feed; site: mammary gland; lesion: fibroadenoma; dosed 104 weeks; study length 104 weeks
Activity calls are given as the source filed them. How the calls were made is not given here.
REPORTED PROPERTY: TD50

Q. Which TD50 value belongs to `CC(C)(C)c1cc(CO)cc(C(C)(C)C)c1O` ?
A. 3710 mg/kg/day (inactive)

###

- System: rodent lifetime carcinogenesis bioassay, tumor incidence TD50
- EXPERIMENT NOTES: carcinogenic potency in animals, long-term in vivo studies, CPDB compilation (AID 1745844)
- CONDITION DESCRIPTION: rat; strain Fischer 344; females; by gavage; site: forestomach; lesion: several types; types named in the paper; dosed 104 weeks; study length 107 weeks
REPORTED PROPERTY: TD50

Q. Which TD50 value belongs to c1ccc(C2CO2)cc1 (stereo unspecified) ?
A. 42.9 mg/kg/day
